# assay.remarks: qHTS assay for small molecule agonists of the p53 signaling pathway - cell viability (AID 651633); also: nearly all actives have a fitted effect of over 30% in size
# assay.context: p53RE-bla HCT-116 viability, ATP luminescence, 16 h; series mostly up to 83.3 µM
Records with an inconclusive call do not appear. Activity calls are given as the source filed them. Calls follow the shape of the full dose curve.
Hello, when you answer, please use one of the following outcomes: class 1 = active, class 0 = inactive

I would be grateful if you could indicate the recorded call for CCCCNP(N)(N)=S .
class 0

Answer briefly: the call reported for ClP(Cl)(Cl)(Cl)Cl in this assay.
class 0

Test call, this compound: C/C=C/C=O
class 0

Hey, what did the test say about Nc1nc(N)nc(N)n1 ?
class 0

Please share the test call associated with N#C/C(N)=C(/N)C#N .
class 0

In this assay, the call recorded for O=[N+]([O-])c1ccccc1CCl was what?
class 0

Tell me the assay call for NC(=O)CI please.
class 0

Record request — test call for c1ccc(C2CC2)c(OCC2=NCCN2)c1
class 0

Per the records of this test, what outcome belongs to c1ccc(CN2CCNCC2)cc1 ?
class 0

Please state the recorded outcome for this compound: O=NN1CCNCC1
class 0

Would you mind telling me which call this test gave C=CC(=O)OC ?
class 0

Call for entry O=C(O)C(F)(F)C(F)(F)C(F)(F)C(F)(F)C(F)(F)C(F)(F)C(F)(F)C(F)(F)C(F)(F)C(F)(F)F :
class 0

Fill in: this test's call for ClC=C(Cl)Cl is ___
class 0

What call does the record list for Clc1ccc(C2(Cn3cncn3)CC(Br)CO2)c(Cl)c1 (centres undefined) ?
class 0

Given CC(=O)c1cc2c(cc1C)C(C)(C)C(C)CC2(C)C (centres undefined) , state the outcome it received in this test.
class 1

Dear colleague, could you share the recorded outcome for CC(c1ccc(O)cc1)(c1ccc(O)cc1)c1ccc(O)cc1 when you have a moment?
class 1

Test call, this compound: Clc1cc(Cl)c(Cl)c(Cl)c1
class 0

Dear all, I need the recorded test outcome for COP(=S)(OC)Oc1ccc([N+](=O)[O-])cc1Cl , thank you.
class 0

Given O=C1NCN(c2ccccc2)C12CCN(CCCOc1ccc(F)cc1)CC2 , state the outcome it received in this test.
class 0

# lookup: test call for CC(=O)CCC(C)=O
class 0

What did the test return for CCOc1ccc(C(C)(C)COCc2cccc(Oc3ccccc3)c2)cc1 ?
class 0

Test call, this compound: COC(=O)C(Cl)C(=O)OC
class 0

Field: outcome | Entry: CCCN(CCC)c1c([N+](=O)[O-])cc(S(C)(=O)=O)cc1[N+](=O)[O-]
class 0

Record lookup: outcome of this test for CN1C(=O)C(O)N=C(c2ccccc2)c2cc(Cl)ccc21 (centres undefined) ?
class 0

Each compound tested received a call. Report the one for Clc1cc(C(Cl)(Cl)Cl)cnc1Cl .
class 0

Could you check what this test reported for COCC(C)N(C(=O)CCl)c1c(C)csc1C (centres undefined) ?
class 0

What classification did CCc1ccc(C(=O)NN(C(=O)c2cc(C)cc(C)c2)C(C)(C)C)cc1 end up with in this test?
class 0

Hi, do you know how O=[Se]=O came out in this test?
class 0

Short answer needed: outcome of this test for CO[C@@H]1[C@H](OC(=O)NC(=O)CCl)CC[C@]2(CO2)[C@H]1[C@@]1(C)O[C@@H]1CC=C(C)C ?
class 0

Reference source: PubChem BioAssay (Tox21)
